- testTarget: MMP-2 (Homo sapiens)
- Construct: purchased Biomol
- Sequence (P08253 110-446 limits assumed): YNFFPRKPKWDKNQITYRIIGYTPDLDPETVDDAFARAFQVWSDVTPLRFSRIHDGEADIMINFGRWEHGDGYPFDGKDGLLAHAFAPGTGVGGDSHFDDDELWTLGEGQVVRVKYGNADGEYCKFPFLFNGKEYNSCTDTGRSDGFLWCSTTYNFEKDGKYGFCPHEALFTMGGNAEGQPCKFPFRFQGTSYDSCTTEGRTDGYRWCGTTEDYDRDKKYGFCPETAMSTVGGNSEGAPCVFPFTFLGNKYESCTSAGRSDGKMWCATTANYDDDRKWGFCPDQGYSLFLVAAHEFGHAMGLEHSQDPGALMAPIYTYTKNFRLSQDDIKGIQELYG
- assayName: In vitro specific inhibition of MMP-2 activity (Biomol assay kit)
- Assay type: biochemical
- details: selected standards, Table 4; read-out: inhibition expressed as IC50 against MMP-2 (converted)
Reported IC50 is given for each of the following compounds.
Could you give me the number in µM? Just the number is fine.

Example results:
O=c1c(O[C@@H]2O[C@H](CO)[C@@H](O)[C@H](O)[C@H]2O)c(-c2ccc(O)c(O)c2)oc2cc(O)cc(O)c12    21.5
COc1cc2ccc(=O)oc2cc1OC    87.3
COc1cc(/C=C/C(=O)O)ccc1O    113
COc1cc2ccc(=O)oc2cc1O    93.7
C[C@@H]1O[C@@H](OC[C@H]2O[C@@H](Oc3c(-c4ccc(O)c(O)c4)oc4cc(O)cc(O)c4c3=O)[C@H](O)[C@@H](O)[C@@H]2O)[C@H](O)[C@H](O)[C@H]1O    45.9

Turning to the following compound.
What the record says about O=c1c(O)c(-c2ccc(O)c(O)c2)oc2cc(O)cc(O)c12 : IC50 is 33.1

Origin of the recorded values: patent US20110033397A1
